biological target: T1, Anti-CD28 Fab (SEQ ID NOs: 696, 697); assay: phage ELISA; clonal phage on plate-captured anti-CD28 Fab pre-incubated with CD28 antigen as competitor
T1 construct: Biotinylated and captured on neutravidin coated plates in the phage ELISA
T1 sequence (VH, as listed by the source, chain 1 of 2): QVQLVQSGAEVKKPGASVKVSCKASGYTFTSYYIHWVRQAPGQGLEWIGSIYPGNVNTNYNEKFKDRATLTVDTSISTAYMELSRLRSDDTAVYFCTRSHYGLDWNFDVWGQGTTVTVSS
T1 sequence (VL, as listed by the source, chain 2 of 2): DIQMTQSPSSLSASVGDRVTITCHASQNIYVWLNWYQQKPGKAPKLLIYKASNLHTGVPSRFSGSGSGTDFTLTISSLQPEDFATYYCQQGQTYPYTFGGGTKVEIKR
Consider the following binders; for each one, report its Phage binding ELISA, Anti-CD28 Fab signal in the presence of CD28.

### Prompt I'd like to know its Phage binding ELISA, Anti-CD28 Fab signal in the presence of CD28. The binder in question is YCDGHSVEYLDKCL (tested as crude clonal phage supernatant) [Phage-1003]
### Response 0.08

### Prompt Field request: Phage binding ELISA, Anti-CD28 Fab signal in the presence of CD28 | item: YCAGHLEEYMWKCL (tested as crude clonal phage supernatant) [Phage-1009]
### Response 0.08

### Prompt Query (binder): YCDGHAPEYLTKCL (tested as crude clonal phage supernatant) [Phage-1000] ; field requested: Phage binding ELISA, Anti-CD28 Fab signal in the presence of CD28
### Response 0.06

### Prompt Which Phage binding ELISA, Anti-CD28 Fab signal in the presence of CD28 reading was recorded for the binder YCDGHLQIYMGKCL (tested as crude clonal phage supernatant) [Phage-1002] ?
### Response 0.06

### Prompt Can you share its Phage binding ELISA, Anti-CD28 Fab signal in the presence of CD28? I mean this binder: YCAGHLPVYMDKCL (tested as crude clonal phage supernatant) [Phage-1007]
### Response 0.08

### Prompt Dear colleague, I am looking for the recorded Phage binding ELISA, Anti-CD28 Fab signal in the presence of CD28 of the following binder: YCDGHNGVYWWKCI (tested as crude clonal phage supernatant) [Phage-999]
### Response 0.07

### Prompt Given the entry YCEGHSAMYIWKCL (tested as crude clonal phage supernatant) [Phage-1008] , report its measured Phage binding ELISA, Anti-CD28 Fab signal in the presence of CD28.
### Response 0.1

### Prompt Dear colleague, I am looking for the recorded Phage binding ELISA, Anti-CD28 Fab signal in the presence of CD28 of the following binder: YCDGHAWQYMWKCL (tested as crude clonal phage supernatant) [Phage-1004]
### Response 0.07

These entries and their values trace back to patent US20260242478A1.
